Data origin: paper PMC6335420

The reader will find reported Kd values listed item by item below.
- System Under Test: T1, BsGpsB1-68 Asp31Ala (B. subtilis, UniProt P0CI74 1-68, Asp31Ala)
- T1 construct: GpsB, Bacillus subtilis, residues 1-68 (N-terminal domain); also called BsGpsB1-68 D31A; source: E. coli BL21(DE3), purified (Ni-NTA, thrombin removal of the His6-tag, SEC); not shown: His6, N-terminal, cleaved
- T1 sequence (looked up): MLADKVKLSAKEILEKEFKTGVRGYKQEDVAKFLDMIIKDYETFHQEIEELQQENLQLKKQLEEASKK
- Assay Name: fluorescence polarisation; GpsB protein titrated into TAMRA- or fluorescein-labelled peptide; 10 mM Tris.HCl pH 8.0, 250 mM NaCl, 0.1% reduced Triton X-100; all data fitted to a 1:1 interaction model, Kd ± standard error
- Condition Notes: both partners purified
No end group written: not given here. C(fluorescein) = cysteine carrying a fluorescein label

>>> value("MSNNQSRYENRDKRRKAN-{C(fluorescein)} [Fluoroescein-BsYrrS1-18]")
"> 3000 µM"

Could you now look at the following binder, please?
Task item: Supply measured Kd of GSMADQFNSREARRKANC(TAMRA‑maleimide)KSSPSPKKGKKRKKGG (PBP1 (ponA), Bacillus subtilis, residues 1-32, cytoplasmic mini-domain; also called TAMRA-labelled BsPBP1 1-32 (Ser16Cys); 16-labelled peptide) [TAMRA-BsPBP11-32 wildtype] in your reply.
Reply: > 1900 µM
